tested_system: DNA topoisomerase 2-alpha (Homo sapiens) (UniProt P11388)
Sequence (P11388 whole entry): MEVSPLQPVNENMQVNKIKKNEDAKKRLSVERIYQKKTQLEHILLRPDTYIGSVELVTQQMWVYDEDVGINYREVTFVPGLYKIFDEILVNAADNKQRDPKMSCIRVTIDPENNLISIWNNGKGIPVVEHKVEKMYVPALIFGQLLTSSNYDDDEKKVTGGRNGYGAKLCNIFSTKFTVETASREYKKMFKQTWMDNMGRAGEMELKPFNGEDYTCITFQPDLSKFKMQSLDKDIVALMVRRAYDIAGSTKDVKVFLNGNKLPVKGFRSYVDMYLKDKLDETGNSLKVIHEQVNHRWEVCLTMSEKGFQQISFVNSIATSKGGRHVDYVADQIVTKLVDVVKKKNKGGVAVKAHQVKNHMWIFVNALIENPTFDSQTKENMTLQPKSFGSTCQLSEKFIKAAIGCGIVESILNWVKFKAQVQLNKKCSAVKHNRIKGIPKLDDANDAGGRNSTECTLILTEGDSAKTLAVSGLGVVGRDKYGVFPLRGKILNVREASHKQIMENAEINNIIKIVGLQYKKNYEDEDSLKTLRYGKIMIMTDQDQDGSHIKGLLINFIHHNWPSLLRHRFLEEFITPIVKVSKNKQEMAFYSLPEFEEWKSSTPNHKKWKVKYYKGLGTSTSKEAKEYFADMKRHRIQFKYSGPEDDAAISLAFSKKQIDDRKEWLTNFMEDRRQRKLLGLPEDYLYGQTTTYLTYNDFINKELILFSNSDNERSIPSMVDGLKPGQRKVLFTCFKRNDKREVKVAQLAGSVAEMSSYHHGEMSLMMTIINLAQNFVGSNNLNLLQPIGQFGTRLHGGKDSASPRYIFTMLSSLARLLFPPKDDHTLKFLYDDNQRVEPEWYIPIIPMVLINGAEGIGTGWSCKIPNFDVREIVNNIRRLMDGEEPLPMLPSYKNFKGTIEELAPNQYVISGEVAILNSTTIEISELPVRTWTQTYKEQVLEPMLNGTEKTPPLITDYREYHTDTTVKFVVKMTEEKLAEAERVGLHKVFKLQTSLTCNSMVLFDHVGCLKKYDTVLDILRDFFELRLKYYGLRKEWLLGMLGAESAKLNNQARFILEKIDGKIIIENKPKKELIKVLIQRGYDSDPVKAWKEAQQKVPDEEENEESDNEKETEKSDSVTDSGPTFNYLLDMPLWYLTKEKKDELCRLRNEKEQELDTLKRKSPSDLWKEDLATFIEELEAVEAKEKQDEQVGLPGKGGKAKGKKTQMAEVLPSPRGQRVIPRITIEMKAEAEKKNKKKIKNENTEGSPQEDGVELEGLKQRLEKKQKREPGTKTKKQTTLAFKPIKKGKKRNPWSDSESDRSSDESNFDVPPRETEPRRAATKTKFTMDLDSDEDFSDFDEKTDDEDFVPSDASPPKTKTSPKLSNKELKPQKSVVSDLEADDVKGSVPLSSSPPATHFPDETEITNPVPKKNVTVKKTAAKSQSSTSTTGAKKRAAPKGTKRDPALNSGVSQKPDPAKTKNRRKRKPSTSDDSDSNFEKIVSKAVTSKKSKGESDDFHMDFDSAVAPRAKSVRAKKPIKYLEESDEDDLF
measurement_notes: Inhibition of human topoisomerase 2-mediated relaxation of supercoiled pBR322 at 20 uM by agarose gel electrophoresis
metric: inhibition
Number first, unit second: that is the form wanted.

>>> test_value("O=C(/C=C/c1ccc(OCC2CS2)cc1)c1ccc(OCC2CS2)cc1 (stereo not given)")
"18%"
>>> test_value("COc1ccc(C(=O)/C=C/c2ccc(OCC(O)CCl)cc2)cc1 (stereo not given)")
"14%"
>>> test_value("COc1ccc(C(=O)/C=C/c2ccc(OCC3CS3)cc2)cc1 (stereo not given)")
"15.5%"
>>> test_value("COc1cc([C@@H]2c3cc4c(cc3[C@@H](O[C@@H]3O[C@@H]5CO[C@@H](C)O[C@H]5[C@H](O)[C@H]3O)[C@H]3COC(=O)[C@H]23)OCO4)cc(OC)c1O [ETOPOSIDE]")
"38%"

Then this molecule:
Give its inhibition value. Item: COc1ccc(C(=O)/C=C/c2ccc(OCC3CO3)cc2)cc1 (stereo not given)
15.2%

====

tested_system: DNA topoisomerase 2-alpha (Homo sapiens)
measurement_notes: Inhibition of human topoisomerase 2-mediated relaxation of supercoiled pBR322 at 100 uM by agarose gel electrophoresis
metric: inhibition (%)
Report the figure in % without appending any unit label.

In the examples that follow, each entry is paired with its recorded inhibition.
>>> test_value("COc1ccc(/C=C/C(=O)c2ccc(OCC3CS3)cc2OCC2CS2)cc1 (stereo unspecified)")
61
>>> test_value("COc1cc(OCC2CO2)ccc1/C=C/C(=O)c1ccc(OCC2CO2)cc1 (stereo unspecified)")
28.5
>>> test_value("COc1ccc(C(=O)/C=C/c2ccc(OCC3CS3)cc2)cc1 (stereo unspecified)")
31.6

Give its inhibition value. Item: COc1ccc(/C=C/C(=O)c2ccc(OCC(O)CCl)cc2)cc1 (stereo unspecified)
34.9

Give its inhibition value. Item: O=C(/C=C/c1ccc(OCC2CO2)cc1)c1ccc(OCC2CO2)cc1 (stereo unspecified)
33.5

Give its inhibition value. Item: COc1cc([C@@H]2c3cc4c(cc3[C@@H](O[C@@H]3O[C@@H]5CO[C@@H](C)O[C@H]5[C@H](O)[C@H]3O)[C@H]3COC(=O)[C@H]23)OCO4)cc(OC)c1O [ETOPOSIDE]
61.9

====

System: MCF7
measurement_notes: Cytotoxicity against human MCF7 cells by MTT assay
Assay type: functional, cell-based
Items are presented alongside their recorded IC50.
Report the figure in µM without appending any unit label.

>>> test_value("COc1ccc(C(=O)/C=C/c2ccc(OCC3CS3)cc2)cc1 (stereo not drawn)")
11.5
>>> test_value("COc1ccc(C(=O)/C=C/c2ccc(OCC(O)CCl)cc2)cc1 (stereo not drawn)")
29.2

Then this compound:
Test system MCF7; read-out IC50; what value for COc1ccc(C(=O)/C=C/c2ccc(OCC3CO3)cc2)cc1 (stereo not drawn) ?
10.9

====

Test system: MCF7
measurement_notes: Cytotoxicity against human MCF7 cells by MTT assay
Type: functional, cell-based
metric: pIC50
Just so you know, pIC50 here is -log10 of the concentration in molar units; reply with that number alone.

In the examples that follow, each entry is paired with its recorded pIC50.
>>> test_value("COc1cc([C@@H]2c3cc4c(cc3[C@@H](O[C@@H]3O[C@@H]5CO[C@@H](C)O[C@H]5[C@H](O)[C@H]3O)[C@H]3COC(=O)[C@H]23)OCO4)cc(OC)c1O [ETOPOSIDE]")
5.70
>>> test_value("COc1cc(OCC2CO2)ccc1/C=C/C(=O)c1ccc(OCC2CO2)cc1 (centres undefined)")
5.44
>>> test_value("CC[C@@]1(O)C(=O)OCc2c1cc1n(c2=O)Cc2cc3ccccc3nc2-1 [CAMPTOTHECIN]")
5.61
>>> test_value("O=C(/C=C/c1ccc(OCC2CS2)cc1)c1ccc(OCC2CS2)cc1 (centres undefined)")
4.66
>>> test_value("COc1ccc(/C=C/C(=O)c2ccc(OCC3CS3)cc2OCC2CS2)cc1 (centres undefined)")
6.31

Give its pIC50 value. Item: COc1ccc(/C=C/C(=O)c2ccc(OCC(O)CCl)cc2)cc1 (centres undefined)
4.73

Give its pIC50 value. Item: COc1ccc(/C=C/C(=O)c2ccc(OCC3CS3)cc2)cc1 (centres undefined)
4.63

Give its pIC50 value. Item: O=C(/C=C/c1ccc(OCC2CO2)cc1)c1ccc(OCC2CO2)cc1 (centres undefined)
5.41

Give its pIC50 value. Item: COc1ccc(/C=C/C(=O)c2ccc(OCC3CO3)cc2)cc1 (centres undefined)
4.93

====

tested_system: UniProt P11388
measurement_notes: Inhibition of human topoisomerase 2-mediated relaxation of supercoiled pBR322 at 20 uM by agarose gel electrophoresis
Items are presented alongside their recorded inhibition.
Report the figure in % without appending any unit label.

In the examples that follow, each entry is paired with its recorded inhibition.
>>> test_value("O=C(/C=C/c1ccc(OCC2CO2)cc1)c1ccc(OCC2CO2)cc1 (stereo unspecified)")
19.3
>>> test_value("COc1cc(OCC2CO2)ccc1/C=C/C(=O)c1ccc(OCC2CO2)cc1 (stereo unspecified)")
14
>>> test_value("COc1ccc(/C=C/C(=O)c2ccc(OCC3CS3)cc2OCC2CS2)cc1 (stereo unspecified)")
20.8
>>> test_value("COc1ccc(/C=C/C(=O)c2ccc(OCC(O)CCl)cc2)cc1 (stereo unspecified)")
16.3
>>> test_value("COc1ccc(/C=C/C(=O)c2ccc(OCC3CS3)cc2)cc1 (stereo unspecified)")
14.8

Give its inhibition value. Item: COc1ccc(/C=C/C(=O)c2ccc(OCC3CO3)cc2)cc1 (stereo unspecified)
17.6

====

Items are presented alongside their recorded inhibition.
tested_system: DNA topoisomerase 2-alpha (Homo sapiens)
measurement_notes: Inhibition of human topoisomerase 2-mediated relaxation of supercoiled pBR322 at 100 uM by agarose gel electrophoresis
Number first, unit second: that is the form wanted.

>>> test_value("COc1ccc(C(=O)/C=C/c2ccc(OCC3CO3)cc2)cc1 (stereo not given)")
"22%"
>>> test_value("O=C(/C=C/c1ccc(OCC2CS2)cc1)c1ccc(OCC2CS2)cc1 (stereo not given)")
"34.6%"

Give its inhibition value. Item: COc1ccc(C(=O)/C=C/c2ccc(OCC(O)CCl)cc2)cc1 (stereo not given)
30.1%

Give its inhibition value. Item: COc1ccc(/C=C/C(=O)c2ccc(OCC3CS3)cc2)cc1 (stereo not given)
31.6%

Give its inhibition value. Item: COc1ccc(/C=C/C(=O)c2ccc(OCC3CO3)cc2)cc1 (stereo not given)
28.8%

Data provenance is ChEMBL document CHEMBL1641543.
